Assignment: determine reported %Inh for the given compounds.
Test system: YANK1
Construct: gene STK32A
Settings: concentration: 1 μM, replicates: in singlicate; n = 1;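 note: KINOMEscan kinase panel screen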
Answers are plain numbers, in %.

Cc1c(Cn2c(C)c(C)n3c(=O)cc(N4CCOCC4)nc23)cccc1C(F)(F)F [GSK2328680]	6
O=C1NC(=O)C(c2ccc(Cl)cc2)=C1Nc1ccc(O)cc1 [SB-340867]	0
CNc1nc(-c2ccc3c(N)n[nH]c3c2)cc(N2C[C@@H](C(=O)Nc3ccccc3)CC[C@H]2C)n1 [GSK2298859]	46
COc1cccc(C2=C(Nc3cc(Cl)c(O)c(Cl)c3)C(=O)NC2=O)c1 [SB-390767]	0
CC(=O)c1c(C)c2cnc(Nc3ccn(C)n3)nc2n(C2CCCC2)c1=O	0
COc1ccc(Nc2nccc(NCCNC(=O)Nc3cc(C)ccc3C)n2)cc1 [GSK1379899]	0

Hi there! I need %Inh for each item below, if you can.
1. Cc1nccc(-c2c(-c3ccc(F)cc3)ncn2CCCN2CCOCC2)n1.Cl [SB-282975]
2. Cc1ccc(NC(=O)c2ccc(Cl)cc2)cc1-c1ccc(C(=O)Nc2ccncc2)cc1 [GSK1398467]
3. CNC(=O)c1ccc(C)c(-n2c(C)cc(OCc3ccc(F)cc3F)c(Br)c2=O)c1

# output
0
2
4

* * *

Tested on: NEK7
Details: concentration: 1 μM, replicates: in singlicate; n = 1
endpoint: %Inh (%)
Numbers only, in %.

Field: example entries. Status: answers known.
CNc1nc(-c2ccc3c(N)n[nH]c3c2)cc(N2C[C@@H](C(=O)Nc3ccccc3)CC[C@H]2C)n1	0
CSc1ccc(-c2nc3n(c2-c2ccncc2)CCC3)cc1	3
FC(F)(F)c1ccccc1-c1cc(-c2c[nH]nc2-c2ccccn2)ccn1	1
Cc1ccc(NC(=O)Nc2ccc(Cl)cc2)cc1-c1ccc(C(=O)Nc2ccncc2)cc1	0
COC(=O)C(Cc1ccccc1)NC(=O)NC1CCN(c2ccnc(Nc3ccc(F)cc3)n2)C1 (stereo not drawn)	0

Hi there! I need %Inh for each item below, if you can.
1. O=c1cc(N2CCOCC2)nc2n(Cc3cccc(Cl)c3Cl)c3ccccc3n12
2. Cc1ccc(NC(=O)Nc2ccccc2)cc1-c1ccc(C(=O)Nc2ccncc2)cc1

# output
1. 20
2. 0

Hi there! I need %Inh for each item below, if you can.
1. Cc1c(Cn2c(C)c(C)n3c(=O)cc(N4CCOCC4)nc23)cccc1C(F)(F)F
2. CC(=O)c1cccc(NC(=O)NC2CCN(c3ccnc(Nc4ccc(F)cc4)n3)C2)c1 (stereo not drawn)

# output
0
0

* * *

System: p38-alpha
Construct: gene MAPK14
Conditions: concentration: 1 μM, replicates: in singlicate; n = 1
endpoint: %Inh (%)
Answers are plain numbers, in %.

Field: example entries. Status: answers known.
Cc1ccc(NC(=O)Nc2ccc(Cl)c(C(F)(F)F)c2)cc1-c1ccc(C(=O)Nc2ccncc2)cc1 [GSK1398470]	95.9
COc1ccc(CSc2nnc(-c3ccc4nccn4c3)o2)cc1C(F)(F)F	4
COc1ccc(Nc2nccc(N3CCC(NC(=O)C(C)c4ccc(Cl)cc4)CC3)n2)cc1 (stereo not shown) [GSK1379812]	1

Briefly, %Inh measured for CS(=O)(=O)CCNCc1nc(-c2ccc3ncnc(Nc4ccc(OCc5ccccc5)c(Cl)c4)c3c2)cs1.Cl [GW582764] : 0
